target: mTOR (Homo sapiens, UniProt P42345); construct: purchased Invitrogen Corporation (Carlsbad/Calif., USA) PV4753; experiment: Biochemical assay for m-TOR by TR-FRET; details: read-out: EPK_mTOR/IC50
Sequence (P42345 1360-2549 limits assumed): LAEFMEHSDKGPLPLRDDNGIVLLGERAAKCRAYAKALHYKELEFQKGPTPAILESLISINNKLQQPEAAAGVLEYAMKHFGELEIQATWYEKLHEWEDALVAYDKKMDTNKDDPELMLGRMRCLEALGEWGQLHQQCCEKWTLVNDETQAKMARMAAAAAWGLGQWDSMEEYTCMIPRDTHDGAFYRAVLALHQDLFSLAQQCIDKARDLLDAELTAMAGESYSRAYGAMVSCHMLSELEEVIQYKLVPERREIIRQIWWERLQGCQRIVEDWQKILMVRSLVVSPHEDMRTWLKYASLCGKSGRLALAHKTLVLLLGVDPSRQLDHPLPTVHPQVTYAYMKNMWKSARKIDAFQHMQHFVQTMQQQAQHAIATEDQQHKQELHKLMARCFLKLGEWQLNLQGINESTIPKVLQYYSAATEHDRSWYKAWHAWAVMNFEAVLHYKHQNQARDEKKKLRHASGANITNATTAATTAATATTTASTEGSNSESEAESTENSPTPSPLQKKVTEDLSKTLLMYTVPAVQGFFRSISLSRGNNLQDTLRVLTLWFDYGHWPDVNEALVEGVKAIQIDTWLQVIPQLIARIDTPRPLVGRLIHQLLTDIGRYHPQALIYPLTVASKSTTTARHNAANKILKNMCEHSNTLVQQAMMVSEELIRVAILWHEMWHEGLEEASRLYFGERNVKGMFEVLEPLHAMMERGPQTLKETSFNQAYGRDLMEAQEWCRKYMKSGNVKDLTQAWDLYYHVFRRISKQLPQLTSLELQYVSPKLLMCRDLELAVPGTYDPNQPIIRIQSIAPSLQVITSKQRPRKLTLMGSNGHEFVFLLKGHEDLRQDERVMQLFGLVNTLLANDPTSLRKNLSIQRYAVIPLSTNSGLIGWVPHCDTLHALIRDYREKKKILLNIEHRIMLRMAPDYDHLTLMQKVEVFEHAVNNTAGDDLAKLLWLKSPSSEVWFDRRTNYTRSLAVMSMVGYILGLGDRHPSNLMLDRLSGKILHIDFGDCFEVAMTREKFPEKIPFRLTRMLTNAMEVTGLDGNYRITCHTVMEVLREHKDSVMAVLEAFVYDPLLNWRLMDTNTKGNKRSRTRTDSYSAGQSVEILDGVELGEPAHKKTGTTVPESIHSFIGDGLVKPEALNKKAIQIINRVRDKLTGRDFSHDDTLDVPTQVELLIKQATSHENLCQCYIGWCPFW
pIC50: −log10 of the molar value.
MEASUREMENT_KIND: pIC50

Example entries begin here.
Cc1nc(C(C)(C)O)ccc1-n1c(=O)n(C)c2cnc3ccc(-c4cncc(C5(C#N)CCC5)c4)cc3c21 [Example 31.8]; 6.91
COCCN(C)c1ccc(-n2c(=O)n(C)c3cnc4ccc(-c5cncc(N)c5)cc4c32)c(C)n1 [Example 15.8]; 7.96

a. CCOc1cc(-c2ccc3ncc4c(c3c2)n(-c2ccc(N3CCC3)nc2C)c(=O)n4C)cnc1COC [Example 23.5]
b. COc1cc(-c2ccc3ncc4c(c3c2)n(-c2ccc(N3CCC(OC)C3)nc2C)c(=O)n4C)cnc1CO (stereo not shown) [Example 28.3]
c. COc1cc(-c2ccc3ncc4c(c3c2)n(-c2ccc(N3CC(O)C3)nc2C)c(=O)n4C)cnc1CO [Example 29.5]
d. CNc1ncc(-c2ccc3ncc4c(c3c2)n(-c2ccc(N(C)C)nc2C)c(=O)n4C)cn1 [Example 19.1]
Problem: Parameters: sort_field (pIC50), sort_dir (desc). Provide the ranking by listing each label in its place in the requested order.
Solution: d, a, c, b
(d: 8.52, a: 7.60, c: 7.21, b: 6.76)
